Target sequence: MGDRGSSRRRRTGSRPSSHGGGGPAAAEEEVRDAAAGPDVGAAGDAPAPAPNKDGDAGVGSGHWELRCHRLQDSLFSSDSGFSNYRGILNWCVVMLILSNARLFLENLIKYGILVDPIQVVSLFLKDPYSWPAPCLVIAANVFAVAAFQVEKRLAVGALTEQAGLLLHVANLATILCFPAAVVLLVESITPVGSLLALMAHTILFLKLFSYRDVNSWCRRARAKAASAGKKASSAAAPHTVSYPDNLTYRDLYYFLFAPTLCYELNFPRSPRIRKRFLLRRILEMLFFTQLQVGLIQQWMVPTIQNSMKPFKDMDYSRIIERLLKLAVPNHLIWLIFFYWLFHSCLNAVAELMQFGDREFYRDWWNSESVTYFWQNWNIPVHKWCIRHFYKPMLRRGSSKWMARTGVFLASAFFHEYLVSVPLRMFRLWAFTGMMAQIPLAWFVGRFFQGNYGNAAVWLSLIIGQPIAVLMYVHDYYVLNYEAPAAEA
Entries and their IC50
Reply with just the number (in nM).

{"TEST_SMILES": "CC(C)(COC1CCN(c2ccc(-c3nc4cc(F)c(F)cc4[nH]3)cn2)CC1)C(=O)O", "IC50 (nM)": 16}
{"TEST_SMILES": "O=C(O)C1(COC2CCN(c3ccc(-c4nc5ccc(C(F)(F)F)cc5[nH]4)cn3)CC2)CCOCC1", "IC50 (nM)": 7}
{"TEST_SMILES": "Cc1cc(N2CCC(O[C@H]3CC[C@H](CC(=O)O)CC3)CC2)ncc1-c1nc2ccccc2[nH]1", "IC50 (nM)": 349}
{"TEST_SMILES": "O=C(O)C[C@H]1CC[C@H](OC2CCN(c3ccc(-c4nc5cc(Cl)cnc5[nH]4)cn3)CC2)CC1", "IC50 (nM)": 61}
{"TEST_SMILES": "N#Cc1ccc2[nH]c(-c3ccc(N4CCC(OC5CC(C(=O)O)(C(=O)O)C5)CC4)nc3)nc2c1", "IC50 (nM)": 277}

(Q) Fill in: IC50 of `O=C(O)c1cccc(COC2CCN(c3ccc(-c4nc5cc(C(F)(F)F)ccc5[nH]4)cn3)CC2)c1` is ___
(A) 4

(Q) Report IC50 for `O=C(O)[C@H]1CC[C@H](OC2CCN(c3ccc(-c4nc5cc(Cl)ccc5[nH]4)cn3)CC2)CC1` please.
(A) 3

---

Biological target: human DGAT1 enzyme expressed in Sf9 insect cells prepared as microsomes (Homo sapiens, UniProt O75907)
Sequence (O75907 1-488): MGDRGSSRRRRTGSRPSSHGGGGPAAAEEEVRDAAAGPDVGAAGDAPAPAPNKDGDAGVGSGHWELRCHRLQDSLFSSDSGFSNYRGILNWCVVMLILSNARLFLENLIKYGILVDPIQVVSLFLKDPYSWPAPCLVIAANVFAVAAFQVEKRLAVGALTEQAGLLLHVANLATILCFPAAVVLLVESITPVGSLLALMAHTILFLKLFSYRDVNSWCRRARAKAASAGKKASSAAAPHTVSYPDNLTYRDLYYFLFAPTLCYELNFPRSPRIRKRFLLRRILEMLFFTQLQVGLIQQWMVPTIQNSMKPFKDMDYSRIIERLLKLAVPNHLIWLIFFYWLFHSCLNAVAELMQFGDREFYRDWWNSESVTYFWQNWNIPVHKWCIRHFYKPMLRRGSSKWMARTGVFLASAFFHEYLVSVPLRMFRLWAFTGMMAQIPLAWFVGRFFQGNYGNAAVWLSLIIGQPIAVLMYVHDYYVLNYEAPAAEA
Catalogue of pIC50 readings, one per entry.
pIC50 here is simply -log10 of the concentration when that concentration is written in mol/L.

Use these answered entries as a reference point.
{"TEST_SMILES": "O=C(O)c1cccc(OCC2CCN(c3ccc(-c4nc5cc(Cl)ccc5[nH]4)cn3)CC2)c1", "pIC50": 8.10}
{"TEST_SMILES": "O=C(O)c1cccc(OCC2CCN(c3ccc(-c4nc5cc(C(F)(F)F)ccc5[nH]4)cn3)CC2)c1", "pIC50": 7.89}
{"TEST_SMILES": "COC(=O)c1cccc(OCC2CCN(c3ccc(-c4nc5cc(Cl)ccc5[nH]4)cn3)CC2)c1", "pIC50": 5.74}

(Q) Consider the compound `O=C(O)c1ccccc1OCC1CCN(c2ccc(-c3nc4cc(Cl)ccc4[nH]3)cn2)CC1` and give its measured pIC50.
(A) 7.07

---

Biological target: human DGAT1 enzyme expressed in Sf9 insect cells prepared as microsomes (Homo sapiens, UniProt O75907)
Sequence (O75907 1-488): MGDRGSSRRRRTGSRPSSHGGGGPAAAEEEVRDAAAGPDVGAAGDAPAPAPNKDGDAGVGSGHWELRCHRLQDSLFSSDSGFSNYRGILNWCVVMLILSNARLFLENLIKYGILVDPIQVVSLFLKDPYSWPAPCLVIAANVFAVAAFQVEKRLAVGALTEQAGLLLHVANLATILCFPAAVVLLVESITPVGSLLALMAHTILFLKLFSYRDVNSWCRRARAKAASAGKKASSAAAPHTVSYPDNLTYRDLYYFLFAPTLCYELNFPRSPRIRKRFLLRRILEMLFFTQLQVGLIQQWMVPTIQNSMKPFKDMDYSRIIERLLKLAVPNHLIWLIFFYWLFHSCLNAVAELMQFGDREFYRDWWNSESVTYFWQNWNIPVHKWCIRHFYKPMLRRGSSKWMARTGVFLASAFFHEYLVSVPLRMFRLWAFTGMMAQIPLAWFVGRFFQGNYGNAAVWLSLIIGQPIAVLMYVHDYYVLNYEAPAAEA
MEASUREMENT_KIND: IC50 (nM)
# output: bare number, implied unit nM

Use the examples below as a reference point.
{"MOLECULE": "O=C(O)c1ccc(F)cc1OCC1CCN(c2ccc(-c3nc4cc(C(F)(F)F)ccc4[nH]3)cn2)CC1 [Example 155]", "MEASUREMENT_KIND": "IC50", "NUMBER": 31}
{"MOLECULE": "O=C(O)C1(COCC2CCN(c3ccc(-c4nc5cc(Cl)ccc5[nH]4)cn3)CC2)CCC1 [Example 161]", "MEASUREMENT_KIND": "IC50", "NUMBER": 95}
{"MOLECULE": "O=C(O)c1ccc(OCC2CCN(c3ccc(-c4nc5cc(Cl)ccc5[nH]4)cn3)CC2)cc1 [Example 150]", "MEASUREMENT_KIND": "IC50", "NUMBER": 67}

Next item in the queue.
(Q) Item O=C(O)c1cc(OCC2CCN(c3ccc(-c4nc5cc(Cl)ccc5[nH]4)cn3)CC2)cc(C(=O)O)c1 [Example 146] has what recorded IC50?
(A) 18

---

biological target: human DGAT1 (Homo sapiens, UniProt O75907)
pIC50: −log10 of the molar value.
Please mark Fulfilled if the recorded pIC50 is equal to or greater than 8, and Not fulfilled if it falls below.

Reference set, count: 2
{"TEST_SMILES": "O=C(O)[C@H]1CC[C@@H](OC2CCN(c3ccc(-c4nc5cc(Cl)ccc5[nH]4)cn3)CC2)CC1", "LABEL_VALUE": "Fulfilled"}
{"TEST_SMILES": "CC(C)(COC1CCN(c2ccc(-c3nc4cc(Cl)cnc4[nH]3)cn2)CC1)C(=O)O", "LABEL_VALUE": "Not fulfilled"}

Now look at this entry.
(Q) Would you say `COC(=O)c1cccc(OC2CCN(c3ccc(-c4nc5cc(C(F)(F)F)ccc5[nH]4)cn3)CC2)c1` shows pIC50 at minimum 8?
(A) Not fulfilled

---

Target protein (sequence): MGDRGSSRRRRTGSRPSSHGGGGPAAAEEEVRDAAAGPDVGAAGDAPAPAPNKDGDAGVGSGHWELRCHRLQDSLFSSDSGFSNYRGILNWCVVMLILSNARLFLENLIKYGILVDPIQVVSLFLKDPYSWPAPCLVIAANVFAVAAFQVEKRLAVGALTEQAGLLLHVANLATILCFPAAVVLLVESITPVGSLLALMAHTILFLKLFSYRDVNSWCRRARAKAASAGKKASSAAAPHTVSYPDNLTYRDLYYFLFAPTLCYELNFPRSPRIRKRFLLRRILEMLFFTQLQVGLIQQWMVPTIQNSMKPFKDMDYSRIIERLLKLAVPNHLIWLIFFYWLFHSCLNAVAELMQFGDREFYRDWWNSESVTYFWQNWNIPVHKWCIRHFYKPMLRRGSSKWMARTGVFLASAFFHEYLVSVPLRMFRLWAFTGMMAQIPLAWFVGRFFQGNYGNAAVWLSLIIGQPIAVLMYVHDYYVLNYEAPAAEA
MEASUREMENT_KIND: IC50 (nM)
The figure you give is taken to be in nM; do not add the unit.

(Q) Dear colleague, I am looking for the recorded IC50 of the following molecule: `O=C(O)C[C@H]1CC[C@H](OC2CCN(c3ccc(-c4nc5cccc(Br)c5[nH]4)cn3)CC2)CC1`
(A) 7

(Q) Any idea what its IC50 is? The molecule is `CCOC(=O)[C@H]1CC[C@@H](OC2CCN(c3ccc(-c4nc5cc(Cl)ccc5[nH]4)cn3)CC2)CC1`
(A) 14

(Q) I'd like to know its IC50. The molecule in question is `Cc1ccc2[nH]c(-c3ccc(N4CCC(O[C@H]5CC[C@@](C)(C(=O)O)CC5)CC4)nc3)nc2n1`
(A) 425

(Q) Field request: IC50 | item: `COc1ccc2[nH]c(-c3ccc(N4CCC(OCC(C)(C)C(=O)O)CC4)nc3)nc2n1`
(A) 140
